Give log10 of EC50 for every item shown.
- assayedTarget: hGIPR (Homo sapiens, UniProt P48546)
- Sequence (P48546 22-466): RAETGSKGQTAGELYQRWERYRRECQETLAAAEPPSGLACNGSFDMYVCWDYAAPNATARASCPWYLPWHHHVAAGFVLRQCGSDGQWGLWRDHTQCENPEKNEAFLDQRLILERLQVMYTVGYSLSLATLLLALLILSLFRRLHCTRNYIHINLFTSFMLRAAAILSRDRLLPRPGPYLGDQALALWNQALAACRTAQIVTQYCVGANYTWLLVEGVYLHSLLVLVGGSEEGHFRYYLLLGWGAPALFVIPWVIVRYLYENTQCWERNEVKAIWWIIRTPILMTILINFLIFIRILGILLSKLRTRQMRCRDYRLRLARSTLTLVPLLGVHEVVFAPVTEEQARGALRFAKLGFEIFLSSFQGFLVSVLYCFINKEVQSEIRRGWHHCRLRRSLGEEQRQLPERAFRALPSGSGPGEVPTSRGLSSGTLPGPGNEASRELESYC
- testName: Functional cAMP activity in the presence of 1% HSA
- Type: cell-based
- setupConditions: read-out: cAMP Rel EC50, hGIPR
Starred links: 1 amine or outer side, 2 acyl side, 3 side chain; linkers in the order of their positions; H or OH if unused. Non-standard residues stand in square brackets, D forms with d. Groups on a side chain read outwards from the residue. No end group written: not given here. *: point of attachment. C20 diacid = O=C(O)CCCCCCCCCCCCCCCCCCC(=O)*; C18 diacid = O=C(O)CCCCCCCCCCCCCCCCC(=O)*; Phe(4-CN) = N#Cc1ccc(C[C@H](N)C(=O)O)cc1; αMePhe(2-F) = C[C@](N)(Cc1ccccc1F)C(=O)O; γGlu = O=C(O)[C@H](CCC(=O)[*:2])N[*:1]; αMe4Pal = C[C@](N)(Cc1ccncc1)C(=O)O; αMeY = C[C@](N)(Cc1ccc(O)cc1)C(=O)O; 4Pal = N[C@@H](Cc1ccncc1)C(=O)O; αMeL = CC(C)C[C@](C)(N)C(=O)O; αMeS = C[C@](N)(CO)C(=O)O; Orn = NCCC[C@H](N)C(=O)O; AEEA = NCCOCCOCC(=O)O; Aib = CC(C)(N)C(=O)O
Scale type: logarithmic (base 10). Underlying EC50 unit: nM.

What does the data say about its log10 of EC50? Entry: H-Y[Aib]QGTFTSDFS[Orn][αMeL]LDKK([AEEA-γGlu-C18 diacid])AQ[Aib]AFIEYLLE[Aib]GESSGAPPPSGS-NH2 [Example 240]
1.02

What does the data say about its log10 of EC50? Entry: H-Y[Aib]Q[dA]T[αMePhe(2-F)]TSD[4Pal][αMeS]I[αMeL]LD[Orn]K([AEEA-γGlu-C18 diacid])AQ[Aib]EFI[dE][αMeY]LIEGGPSSGAPPPSGSE-NH2 [Example 1222]
1.09

What does the data say about its log10 of EC50? Entry: H-Y[Aib]QGTFTSD[4Pal]SQ[αMeL]LD[Orn]K([γGlu-γGlu-C18 diacid])AQ[αMe4Pal]AFIE[αMeY]LIE[Aib]GPSSGEPPPSGSEE-NH2 [Example 1093]
1.43

What does the data say about its log10 of EC50? Entry: Y[Aib]QGTFTSD[4Pal]SR[αMeL]LDKK([AEEA-γGlu-C18 diacid])AQ[αMe4Pal]AFIE[αMe4Pal]LIEGGPSSGAPPPSGS-NH2 [Example 950]
1.26

What does the data say about its log10 of EC50? Entry: Y[Aib]QGTFTSD[4Pal]SQ[αMeL]LD[Orn]K([γGlu-γGlu-C18 diacid])AQ[αMe4Pal]AFIEYLIE[Aib]GPSSGAPPPSGS-NH2 [Example 935]
1.23

What does the data say about its log10 of EC50? Entry: Y[Aib]QGTFTSDFS[Orn][αMeL]LDKK([AEEA-AEEA-γGlu-C18 diacid])AQ[Aib]AFIEYLLE[dA]GPSSGEPPPSEG-NH2 [Example 116]
1.61

What does the data say about its log10 of EC50? Entry: H-Y[Aib]QGT[αMePhe(2-F)]TSD[Phe(4-CN)]SILLDKQAQK([AEEA-AEEA-γGlu-C20 diacid])AFIQYLLEGGPSSGEPPPSEG-NH2 [Example 353]
1.73

What does the data say about its log10 of EC50? Entry: H-Y[Aib]QGTFTSD[4Pal]S[Orn][αMeL]LDKK([AEEA-γGlu-C18 diacid])AQ[Aib]AFIEYLLE[dA]GPSS[Aib]APPPSGT-NH2 [Example 275]
1.44

What does the data say about its log10 of EC50? Entry: H-Y[Aib]QGT[αMePhe(2-F)]TSD[4Pal][αMeS]I[αMeL]LD[Orn]K([γGlu-γGlu-C18 diacid])AQ[Aib][Orn]FI[dE]YLIEGGPSSGEPPPSGTGE-NH2 [Example 523]
-0.06

What does the data say about its log10 of EC50? Entry: H-Y[Aib]QGTFTSD[4Pal]S[Orn][αMeL]LD[Orn]K([Glu-Glu-γGlu-C18 diacid])AQ[Aib]AFIE[αMeY]LLEGGPSSGAPPPSGSEE-NH2 [Example 1067]
1.94

What does the data say about its log10 of EC50? Entry: H-Y[Aib]QGTFTSDFS[Orn][αMeL]LDKK([AEEA-γGlu-γGlu-C18 diacid])AQ[Aib]AFIEYLLE[Aib]GPSSGAPPPSGT-NH2 [Example 278]
0.89

What does the data say about its log10 of EC50? Entry: H-Y[Aib]QGT[αMePhe(2-F)]TSD[4Pal][αMeS]I[αMeL]LD[Orn]K([γGlu-γGlu-C18 diacid])AQ[αMe4Pal]EFI[dE][αMeY]LIEGGPPS[Aib][Orn]PPP[Orn]GS-NH2 [Example 1226]
-0.35
